# target-or-test-system: UniProtKB Q72874
# assay-comment: Inhibition of HIV protease at pH 6.4, 37 degree C
*1 amine or outer side, *2 acyl side, *3 side chain or, on linkers, in order; H or OH if unused. Where a SMILES comes first, the peptide text is derived from it. [ ]: non-standard residue; d: D form. Ahppa(3S,4S) = O=C(C[C@H](O)[C@H](Cc1ccccc1)N[*:1])[*:2]; X2 = O=C([C@@H]1CCCN1C[C@H](Cc1ccccc1)N[*:1])[*:2]
metric: Ki (µM)
Express it in µM; write the number only.

CC(=O)N[C@@H](CO)C(=O)N[C@@H](CCC(N)=O)C(=O)N[C@@H](CC(N)=O)C(=O)N[C@@H](Cc1ccccc1)CN1CCC[C@H]1C(=O)N[C@H](C(=O)N[C@H](C(N)=O)C(C)C)C(C)C (Ac-SQN[X2]VV-NH2) : 13

[Q] GET /values?readout=Ki&item= COC(=O)[C@@H](NC(=O)[C@@H](NC(=O)C[C@H](O)[C@H](Cc1ccccc1)NC(=O)[C@H](CC(N)=O)NC(=O)[C@H](CCC(N)=O)NC(=O)[C@H](CO)NC(C)=O)C(C)C)C(C)C (Ac-SQN[Ahppa(3S,4S)]VV-OMe)
[A] 39
